- Measured on: Alpha-2A adrenergic receptor (Homo sapiens)
- Sequence (whole entry): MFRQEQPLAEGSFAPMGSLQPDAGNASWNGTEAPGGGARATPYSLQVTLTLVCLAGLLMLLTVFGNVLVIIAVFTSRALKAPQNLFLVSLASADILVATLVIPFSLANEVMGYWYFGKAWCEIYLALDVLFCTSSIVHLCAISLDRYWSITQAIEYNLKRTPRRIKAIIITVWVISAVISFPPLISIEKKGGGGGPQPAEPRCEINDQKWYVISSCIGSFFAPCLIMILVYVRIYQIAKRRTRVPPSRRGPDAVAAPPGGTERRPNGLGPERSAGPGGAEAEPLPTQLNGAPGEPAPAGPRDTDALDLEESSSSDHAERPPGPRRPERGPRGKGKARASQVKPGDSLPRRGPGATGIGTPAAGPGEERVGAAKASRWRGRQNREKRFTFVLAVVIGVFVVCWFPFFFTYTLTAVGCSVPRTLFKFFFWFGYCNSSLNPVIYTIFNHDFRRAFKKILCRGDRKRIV
- Condition: Compound concentration 10 µM; call rule not given here
// one of active, inactive, no free text

Below are worked cases with known answers.
CC1=C2C[C@H]3[C@@H](CC=C4C[C@@H](O)CC[C@@]43C)[C@@H]2CC[C@]12O[C@@H]1C[C@H](C)CN[C@H]1[C@H]2C ... inactive
CN1C[C@H](C(=O)N[C@]2(C)O[C@@]3(O)[C@@H]4CCCN4C(=O)[C@H](Cc4ccccc4)N3C2=O)C[C@@H]2c3cccc4[nH]cc(c34)C[C@H]21 ... active
OCc1cc(C(O)CNCCCCCCOCCCCc2ccccc2)ccc1O (centres undefined) ... active
O=C(c1cc2c(cc1F)OC(c1ccc(F)cc1)(c1ccc(Cl)cc1Cl)O2)N1CCOCC1 (centres undefined) ... inactive
COc1cccc([C@@H](C)NCCCc2ccccc2Cl)c1 ... inactive

Note: attention shifts to another entry.
Each compound tested received a call. Report the one for OC1(c2ccc(Cl)cc2)CCN(Cc2c[nH]c3ccccc23)CC1 .
active
